Hey, just so you know, these numbers are from patent US7897602B2.

biological target: Flt3 kinase (Homo sapiens, UniProt P36888); construct: recombinant N-terminal 6×His-tagged Flt3 kinase domain construct expressed from baculovirus; 6xHis (N); made in house; test: Flt3 kinase assay (33P incorporation into Poly(Glu-Tyr)); type: biochemical; conditions: 100 nM test compound; read-out: Inhibition at 100 nM (%) Flt-3
Sequence (P36888 610-943 limits assumed): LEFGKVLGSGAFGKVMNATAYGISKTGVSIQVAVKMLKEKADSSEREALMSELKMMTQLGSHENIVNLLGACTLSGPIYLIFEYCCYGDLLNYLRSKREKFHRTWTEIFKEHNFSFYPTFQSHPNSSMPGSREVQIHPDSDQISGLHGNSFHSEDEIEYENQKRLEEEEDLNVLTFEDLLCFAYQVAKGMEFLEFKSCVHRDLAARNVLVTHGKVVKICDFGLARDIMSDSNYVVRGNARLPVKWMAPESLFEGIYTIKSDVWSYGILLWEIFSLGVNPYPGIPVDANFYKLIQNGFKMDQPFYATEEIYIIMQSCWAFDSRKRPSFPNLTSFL
observationType: inhibition at 0.1 µM (%)

Examples with their reported inhibition at 0.1 µM follow.
[[record]]
compound = "O=C(O)CCc1c(/C=C2\\C(=O)Nc3ccc(S(=O)(=O)Cc4ccccc4)cc32)[nH]c2c1C(=O)CCC2 [DCB-70071]"
observationtype = "inhibition at 0.1 µM"
reportedvalue = 21.2

[[record]]
compound = "COc1ccc(NC(=O)Nc2ccc3c(c2)/C(=C/c2[nH]c4c(c2CCC(=O)O)C(=O)CCC4)C(=O)N3)cc1 [DCB-70094]"
observationtype = "inhibition at 0.1 µM"
reportedvalue = 52.8

[[record]]
compound = "CN1CCN(C(=O)CCc2c(/C=C3\\C(=O)Nc4ccc(S(=O)(=O)N5CCCC5)cc43)[nH]c3c2C(=O)CCC3)CC1 [DCB-70120]"
observationtype = "inhibition at 0.1 µM"
reportedvalue = 31.2


(A) CCN(CC)C(=O)CCc1c(/C=C2\C(=O)Nc3ccc(F)cc32)[nH]c2c1C(=O)CCC2 [DCB-70124]
(B) O=C(O)CCc1c(/C=C2\C(=O)Nc3ccc(NC(=O)c4ccc(F)cc4)cc32)[nH]c2c1C(=O)CCC2 [DCB-70076]
(C) C=CS(=O)(=O)c1ccc2c(c1)/C(=C/c1[nH]c3c(c1CCC(=O)O)C(=O)CCC3)C(=O)N2 [DCB-70115]
q: Please list these in order of increasing inhibition at 0.1 µM. Thank you! Reply with the item labels sorted in the order that was asked for.
a: B, C, A
(B: -3.1%, C: 26.8%, A: 88.6%)

---

Molecular target: PDGFR-β kinase (Homo sapiens)
Construct: recombinant N-terminal 6×His-tagged PDGFR-β kinase domain construct expressed by baculovirus; 6xHis (N); made in house
Sequence (P09619 600-962 limits assumed): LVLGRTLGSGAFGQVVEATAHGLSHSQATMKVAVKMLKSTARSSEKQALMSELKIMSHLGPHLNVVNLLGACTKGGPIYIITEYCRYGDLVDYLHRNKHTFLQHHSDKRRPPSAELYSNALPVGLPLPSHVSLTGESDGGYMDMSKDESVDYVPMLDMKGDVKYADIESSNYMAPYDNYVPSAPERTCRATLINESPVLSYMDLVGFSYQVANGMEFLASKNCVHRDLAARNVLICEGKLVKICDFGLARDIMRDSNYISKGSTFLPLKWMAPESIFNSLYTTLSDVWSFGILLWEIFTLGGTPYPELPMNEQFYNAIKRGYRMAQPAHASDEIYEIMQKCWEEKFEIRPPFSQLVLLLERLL
Assay: PDGFR-β kinase assay (33P incorporation into Poly(Glu-Tyr))
Format: biochemical
Settings: 500 nM test compound
Method: Inhibition of PDGFR-β kinase activity by compounds disclosed herein was quantified by measuring the amount of [^33P] incorporated into the substrate in the presence of a test compound. […] The plate was then sealed and counted using a TopCount scintillation detector (PerkinElmer). The percentage of inhibition rate of the test compound was calculated by dividing the retained radioactivity of the test sample with the retained radioactivity of the control sample and shown in Table 3.
observationType: inhibition at 0.5 µM (%)

[[record]]
molecule = "O=C(O)CCc1c(/C=C2\\C(=O)Nc3cc(-c4ccc(O)cc4)ccc32)[nH]c2c1C(=O)CCC2 [DCB-70075]"
system = "PDGFR-β kinase (Homo sapiens)"
observationtype = "inhibition at 0.5 µM"
displayunit = "%"
reportedvalue = 94.1

[[record]]
molecule = "COc1ccc(NC(=O)Nc2ccc3c(c2)/C(=C/c2[nH]c4c(c2CCC(=O)O)C(=O)CCC4)C(=O)N3)cc1 [DCB-70094]"
system = "PDGFR-β kinase (Homo sapiens)"
observationtype = "inhibition at 0.5 µM"
displayunit = "%"
reportedvalue = 48.5


(P) COc1cc(-c2ccc3c(c2)NC(=O)/C3=C\c2[nH]c3c(c2CCC(=O)O)C(=O)CCC3)ccc1O [DCB-70082]
(Q) CCOC(=O)CCc1c(/C=C2\C(=O)Nc3ccc(NS(=O)(=O)CC)cc32)[nH]c2c1C(=O)CCC2 [DCB-70118]
q: Of P and Q , whose reported inhibition at 0.5 µM is numerically smaller? State the label of the item chosen.
a: Q

---

target: c-Met kinase (Homo sapiens, UniProt P08581); construct: recombinant N-terminal 6×His-tagged c-Met kinase domain construct expressed from baculovirus; 6xHis (N); made in house; test: c-Met kinase assay (33P incorporation into Poly(Glu-Tyr)); assay type: biochemical; settings: 500 nM test compound
Sequence (P08581 1078-1345 limits assumed): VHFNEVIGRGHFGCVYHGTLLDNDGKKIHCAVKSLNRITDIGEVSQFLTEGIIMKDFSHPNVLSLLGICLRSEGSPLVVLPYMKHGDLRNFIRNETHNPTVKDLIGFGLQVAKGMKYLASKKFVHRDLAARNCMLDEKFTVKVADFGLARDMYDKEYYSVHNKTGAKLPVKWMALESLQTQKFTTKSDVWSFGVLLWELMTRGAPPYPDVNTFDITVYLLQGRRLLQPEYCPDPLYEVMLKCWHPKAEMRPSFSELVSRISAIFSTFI
observationType: inhibition at 0.5 µM (%)

[[record]]
molecule = "CCOC(=O)CCc1c(/C=C2\\C(=O)Nc3ccc(NS(=O)(=O)c4cc(F)cc(F)c4)cc32)[nH]c2c1C(=O)CCC2"
observationtype = "inhibition at 0.5 µM"
displayunit = "%"
reportedvalue = 14


(A) COc1ccc(NC(=O)Nc2ccc3c(c2)/C(=C/c2[nH]c4c(c2CCC(=O)O)C(=O)CCC4)C(=O)N3)cc1
(B) CCN(CC)C(=O)CCc1c(/C=C2\C(=O)Nc3ccc(F)cc32)[nH]c2c1C(=O)CCC2
q: Higher inhibition at 0.5 µM between A and B ? Mark your selection by writing its label.
a: A
(A: 18.9%, B: -0.8%)

---

target: Aurora B kinase (Homo sapiens); construct: purchased Cell signaling; experiment: Aurora B kinase assay ([γ-33P]ATP, CHOCKtide substrate); format: biochemical; conditions: 1.0 μM test compound
Sequence (Q96GD4 whole entry): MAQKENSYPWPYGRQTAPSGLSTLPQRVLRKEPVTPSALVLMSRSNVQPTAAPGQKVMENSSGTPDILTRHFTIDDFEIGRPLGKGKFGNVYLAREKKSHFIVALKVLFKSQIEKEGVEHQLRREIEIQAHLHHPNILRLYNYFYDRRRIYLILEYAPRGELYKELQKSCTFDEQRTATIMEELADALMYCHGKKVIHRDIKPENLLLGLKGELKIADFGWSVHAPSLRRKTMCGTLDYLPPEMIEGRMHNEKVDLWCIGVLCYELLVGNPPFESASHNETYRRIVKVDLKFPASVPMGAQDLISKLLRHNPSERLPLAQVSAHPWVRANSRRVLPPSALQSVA
observationType: inhibition at 1 µM (%)

// worked examples, inhibition at 1 µM included
[[record]]
structuresmilesstring = "CCOC(=O)CCc1c(/C=C2\\C(=O)Nc3ccc(NCc4ccccc4)cc32)[nH]c2c1C(=O)CCC2"
displayunit = "%"
reportedvalue = 44.5

[[record]]
structuresmilesstring = "O=C(O)CCc1c(/C=C2\\C(=O)Nc3ccc(S(=O)(=O)N4CCCC4)cc32)[nH]c2c1C(=O)CCC2"
displayunit = "%"
reportedvalue = 66.2

[[record]]
structuresmilesstring = "O=C(O)CCc1c(/C=C2\\C(=O)Nc3cc(-c4ccc(F)cc4)ccc32)[nH]c2c1C(=O)CCC2"
displayunit = "%"
reportedvalue = 30

[[record]]
structuresmilesstring = "CN(c1cccc(Cl)c1)S(=O)(=O)c1ccc2c(c1)/C(=C/c1[nH]c3c(c1CCC(=O)O)C(=O)CCCC3)C(=O)N2"
displayunit = "%"
reportedvalue = 30.2


(a) CCOC(=O)CCc1c(/C=C2\C(=O)Nc3ccc(NS(=O)(=O)c4ccccc4)cc32)[nH]c2c1C(=O)CC(C)(C)C2
(b) CCOC(=O)CCc1c(/C=C2\C(=O)Nc3ccc(NC(=O)c4ccccc4)cc32)[nH]c2c1C(=O)CCC2
(c) CCCCCCC#Cc1ccc2c(c1)/C(=C/c1[nH]c3c(c1CCC(=O)O)C(=O)CCC3)C(=O)N2
(d) O=C(O)CCc1c(/C=C2\C(=O)Nc3ccc(S(=O)(=O)N4CCc5ccccc54)cc32)[nH]c2c1C(=O)CCC2
(e) O=C(O)CCc1c(/C=C2\C(=O)Nc3ccc(Br)cc32)[nH]c2c1C(=O)CCC2
q: Please list the entries, largest inhibition at 1 µM first. Note for the reader: the ranking is given by listing the labels in the order requested.
a: d, a, b, e, c
(d: 70.6%, a: 30.6%, b: 15.1%, e: 6.8%, c: -9.8%)

(a) CCOC(=O)CCc1c(C=C2C(=S)Nc3ccccc32)[nH]c2c1C(=O)CCC2
(b) CCOC(=O)CCc1c(/C=C2\C(=O)Nc3ccc(NC(=O)Nc4ccc(Br)cc4)cc32)[nH]c2c1C(=O)CCC2
(c) CCOC(=O)CCc1c(/C=C2\C(=O)Nc3ccc(NC(=O)c4ccc([N+](=O)[O-])cc4)cc32)[nH]c2c1C(=O)CCC2
(d) CCOC(=O)CCc1c(/C=C2\C(=O)Nc3ccc(S(=O)(=O)N4CCc5ccccc54)cc32)[nH]c2c1C(=O)CCC2
(e) CCOC(=O)CCc1c(/C=C2\C(=O)Nc3ccc(NC(=O)Nc4ccc(F)cc4)cc32)[nH]c2c1C(=O)CCC2
q: Sort by inhibition at 1 µM, descending. Returns: the labels arranged in the requested order.
a: d, a, c, e, b
(d: 45.5%, a: 12.8%, c: 5.2%, e: 0.1%, b: -6.6%)

---

target: PDGFR-β kinase (Homo sapiens); construct: recombinant N-terminal 6×His-tagged PDGFR-β kinase domain construct expressed by baculovirus; 6xHis (N); made in house; assay: PDGFR-β kinase assay (33P incorporation into Poly(Glu-Tyr)); format: biochemical; settings: 500 nM test compound
observationType: inhibition at 0.5 µM (%)

[[record]]
molecule = "CCOC(=O)CCc1c(/C=C2\\C(=O)Nc3ccc(NC(=O)c4ccc(OC)cc4)cc32)[nH]c2c1C(=O)CCC2 [DCB-70141]"
reportedvalue = 1.4


(a) O=C1Nc2ccc(F)cc2/C1=C/c1[nH]c2c(c1CCC(=O)N1CCOCC1)C(=O)CCC2 [DCB-70125]
(b) CN(c1cccc(Cl)c1)S(=O)(=O)c1ccc2c(c1)/C(=C/c1[nH]c3c(c1CCC(=O)O)C(=O)CCCC3)C(=O)N2 [DCB-70148]
(c) O=C(O)CCc1c(/C=C2\C(=O)Nc3ccc(S(=O)(=O)N4CCCCC4)cc32)[nH]c2c1C(=O)CCC2 [DCB-70114]
(d) CCOC(=O)CCc1c(/C=C2\C(=O)Nc3ccc(NS(=O)(=O)c4ccccc4)cc32)[nH]c2c1C(=O)CCC2 [DCB-70102]
q: Task for the reader: rank each entry by its inhibition at 0.5 µM, from the minimum upward. List the labels according to the requested ordering.
a: c, b, d, a
(c: 5.6%, b: 16.1%, d: 32.8%, a: 78.2%)
